# Test system: HeLa
# assay.remarks: Formazan production in HRV-14 virus infected cells
# Type: functional, cell-based
# condition.set: Homo sapiens
Please go through the items and note down their pEC50.
pEC50 here is simply -log10 of the concentration when that concentration is written in mol/L.

## Task Which value of pEC50 has been reported for "CC(C)C[C@H](NC(=O)OCc1ccccc1)C(=O)N[C@@H](Cc1ccccc1)C(=O)N[C@H](/C=C/C(=O)OCc1ccccc1)CCC(N)=O" in the records?
## Result 5.49

## Task Let us now turn to "CC(C)C[C@H](NC(=O)OCc1ccccc1)C(=O)N[C@@H](Cc1ccccc1)C(=O)N[C@H](/C=C/C#N)CCC(N)=O"
## Result 4.74

## Task Let us now turn to "CC(C)C[C@H](NC(=O)OCc1ccccc1)C(=O)N[C@@H](Cc1ccccc1)C(=O)N[C@H](/C=C/C(=O)N1CCc2cc(Br)ccc21)CCC(N)=O"
## Result 4.33

## Task Let us now turn to "CC(C)C[C@H](NC(=O)OCc1ccccc1)C(=O)N[C@@H](Cc1ccccc1)C(=O)N[C@H](/C=C/C(=O)N(C)O)CCC(N)=O"
## Result 4.38

## Task Let us now turn to "CC(C)C[C@H](NC(=O)OCc1ccccc1)C(=O)N[C@@H](Cc1ccccc1)C(=O)N[C@H](/C=C/C(=O)N(C)c1ccccc1)CCC(N)=O"
## Result 3.80

## Task Let us now turn to "CC(C)C[C@H](NC(=O)OCc1ccccc1)C(=O)N[C@@H](Cc1ccccc1)C(=O)N[C@H](/C=C/C(=O)n1cccc1)CCC(N)=O"
## Result 5.85

## Task Let us now turn to "CC(C)C[C@H](NC(=O)OCc1ccccc1)C(=O)N[C@@H](Cc1ccccc1)C(=O)N[C@H](/C=C/C(=O)c1ccc(C#N)cc1)CCC(N)=O"
## Result 4.30

## Task Let us now turn to "CC(C)C[C@H](NC(=O)OCc1ccccc1)C(=O)N[C@@H](Cc1ccccc1)C(=O)N[C@H](/C=C/C(=O)n1ccc2ccccc21)CCC(N)=O"
## Result 5.74

## Task Let us now turn to "CON(C)C(=O)/C=C/[C@H](CCC(N)=O)NC(=O)[C@H](Cc1ccccc1)NC(=O)[C@H](CC(C)C)NC(=O)OCc1ccccc1"
## Result 5.40

---

# measurement.target: Human rhinovirus A protease (Human rhinovirus sp.)
# assay.remarks: Catalytic rate constant (Kobs/[I]) evaluated against human rhinovirus (HRV) serotype 14 3C Protease (3CP)
# condition.set: Human rhinovirus B (HRV-14)
readout.label: K obs / 1

## Task Which value of K obs / 1 has been reported for "CC(C)C[C@H](NC(=O)OCc1ccccc1)C(=O)N[C@@H](Cc1ccccc1)C(=O)N[C@H](/C=C/C(=O)N1CCCc2ccccc21)CCC(N)=O" in the records?
## Result 1000 M⁻¹ s⁻¹

## Task Let us now turn to "CC(=O)N1CC/C(=C\[C@H](CCC(N)=O)NC(=O)[C@H](Cc2ccccc2)NC(=O)[C@H](CC(C)C)NC(=O)OCc2ccccc2)C1=O"
## Result 156000 M⁻¹ s⁻¹

## Task Let us now turn to "COC(=O)N1CC/C(=C\[C@H](CCC(N)=O)NC(=O)[C@H](Cc2ccccc2)NC(=O)[C@H](CC(C)C)NC(=O)OCc2ccccc2)C1=O"
## Result 8400 M⁻¹ s⁻¹

## Task Let us now turn to "CC(C)C[C@H](NC(=O)OCc1ccccc1)C(=O)N[C@@H](Cc1ccccc1)C(=O)N[C@H](/C=C/C(=O)OCc1ccccc1)CCC(N)=O"
## Result 39400 M⁻¹ s⁻¹

## Task Let us now turn to "COc1ccc(C(=O)/C=C/[C@H](CCC(N)=O)NC(=O)[C@H](Cc2ccccc2)NC(=O)[C@H](CC(C)C)NC(=O)OCc2ccccc2)cc1"
## Result 150000 M⁻¹ s⁻¹

## Task Let us now turn to "CC(C)C[C@H](NC(=O)OCc1ccccc1)C(=O)N[C@@H](Cc1ccccc1)C(=O)N[C@H](/C=C/C(=O)N1CCc2cccc(Cl)c21)CCC(N)=O"
## Result 5400 M⁻¹ s⁻¹
